Source listed as patent US6706266.

Target: T1, gp130 on HepG2 B6 cells (UniProt P40189 23-918, limits assumed)
T1 sequence (looked up): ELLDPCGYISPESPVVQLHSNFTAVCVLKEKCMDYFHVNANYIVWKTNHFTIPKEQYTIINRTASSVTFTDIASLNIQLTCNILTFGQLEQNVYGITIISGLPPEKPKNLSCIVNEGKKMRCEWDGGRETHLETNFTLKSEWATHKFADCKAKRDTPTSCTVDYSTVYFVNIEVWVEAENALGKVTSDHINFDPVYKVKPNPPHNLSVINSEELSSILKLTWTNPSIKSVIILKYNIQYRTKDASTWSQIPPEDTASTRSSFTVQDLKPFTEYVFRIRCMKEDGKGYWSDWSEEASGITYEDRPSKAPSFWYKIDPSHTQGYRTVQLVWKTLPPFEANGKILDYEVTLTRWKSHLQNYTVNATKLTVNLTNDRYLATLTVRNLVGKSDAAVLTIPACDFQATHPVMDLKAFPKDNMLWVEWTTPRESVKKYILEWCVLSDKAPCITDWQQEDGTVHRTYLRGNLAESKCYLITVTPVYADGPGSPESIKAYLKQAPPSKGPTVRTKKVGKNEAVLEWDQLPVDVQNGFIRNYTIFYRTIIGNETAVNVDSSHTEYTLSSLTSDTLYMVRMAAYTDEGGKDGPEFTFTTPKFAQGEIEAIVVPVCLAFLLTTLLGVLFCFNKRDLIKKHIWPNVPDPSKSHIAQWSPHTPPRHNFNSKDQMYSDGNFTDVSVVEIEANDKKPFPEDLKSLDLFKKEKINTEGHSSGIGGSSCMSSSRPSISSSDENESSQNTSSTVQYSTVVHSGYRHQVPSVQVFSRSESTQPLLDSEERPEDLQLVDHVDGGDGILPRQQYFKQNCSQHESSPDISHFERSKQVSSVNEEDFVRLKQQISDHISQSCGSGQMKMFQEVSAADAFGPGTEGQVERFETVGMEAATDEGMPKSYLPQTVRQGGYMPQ
Assay: cell-based or functional assay
readoutLabel: sPAP HepG2 B6 assay: Expt 1 EC50 (mg/L)
Please state the figure in mg/L; there is no need to write the unit.

Input: State the recorded sPAP HepG2 B6 assay: Expt 1 EC50 for this entry: OSM-GST mutant K8A (ligand, not shown: a dimerising Fc or GST; large carriers; small tags and cut ends, Alanine mutant of m4; also called (2)K8A; 2 K8A) AAIGSCSAEYRVLLGQLQKQTDLMQDTSRLLDPYIRIQGLDVPKLREHCRERPGAFPSEETLRGLGRRGFLQTLNATLGCVLHRLADLEQRLPKAQDLERSGLNIEDLEKLQMARPNILGLRNNIYCMAQLLDNSDTAEPTKAGRGASQPPTPTPASDAFQRKLEGCRFLHGYHRFMHSVGRVFSKWGESPNRSRR
Output: 0.016

Input: State the recorded sPAP HepG2 B6 assay: Expt 1 EC50 for this entry: OSM-GST mutant Q130A (ligand, not shown: a dimerising Fc or GST; large carriers; small tags and cut ends, Alanine mutant of m4; also called (25)Y130A; 25 Q130A) AAIGSCSKEYRVLLGQLQKQTDLMQDTSRLLDPYIRIQGLDVPKLREHCRERPGAFPSEETLRGLGRRGFLQTLNATLGCVLHRLADLEQRLPKAQDLERSGLNIEDLEKLQMARPNILGLRNNIYCMAALLDNSDTAEPTKAGRGASQPPTPTPASDAFQRKLEGCRFLHGYHRFMHSVGRVFSKWGESPNRSRR
Output: 0.0125

Input: State the recorded sPAP HepG2 B6 assay: Expt 1 EC50 for this entry: OSM-GST mutant N123A (ligand, not shown: a dimerising Fc or GST; large carriers; small tags and cut ends, Alanine mutant of m4; also called (22)N123A; 22 N123A) AAIGSCSKEYRVLLGQLQKQTDLMQDTSRLLDPYIRIQGLDVPKLREHCRERPGAFPSEETLRGLGRRGFLQTLNATLGCVLHRLADLEQRLPKAQDLERSGLNIEDLEKLQMARPNILGLRANIYCMAQLLDNSDTAEPTKAGRGASQPPTPTPASDAFQRKLEGCRFLHGYHRFMHSVGRVFSKWGESPNRSRR
Output: 0.0379
